tested on: L1210 leukemia ip in BDF1 mice, survival T/C; test: NCI In Vivo Anticancer Drug Screen. Data for tumor model L1210 Leukemia (intraperitoneal) in B6D2F1 (BDF1) mice; conditions: endpoint: mean survival time; dose: 200.0 mg/kg/injection; schedule: Q04DX002 (ip); vehicle: saline with Tween-80; higher = longer survival
Inconclusive results and toxic doses are left out.
Each item that follows carries a reported T/C.

Here is how some compounds turned out for T/C.
{"compound": "COc1ccc(CCNC(=O)NC(C)(C)C)cc1OC", "study system": "L1210 leukemia ip in BDF1 mice, survival T/C", "result": "94 % of control"}
{"compound": "O=C1CCCCC1c1sc([N+](=O)[O-])cc1[N+](=O)[O-] (stereo not drawn)", "study system": "L1210 leukemia ip in BDF1 mice, survival T/C", "result": "104 % of control"}
{"compound": "CC(=O)NC(CO)C(O)c1ccc([N+](=O)[O-])cc1 (stereo not drawn)", "study system": "L1210 leukemia ip in BDF1 mice, survival T/C", "result": "94 % of control"}
{"compound": "CCCCCCCCCCC1CCCCC1", "study system": "L1210 leukemia ip in BDF1 mice, survival T/C", "result": "98 % of control"}

Returns the measured T/C for the input compound. Input: Cc1nc(CCl)no1
95 % of control

Same again, this time with CO[CH2][Pb]([c]1ccccc1)([c]1ccccc1)[c]1ccccc1
94 % of control

Same again, this time with CCCCCCCCCCCC[N+]1([O-])CCOCC1
94 % of control

Same again, this time with Cc1ccc(I)cc1NCN1C(=O)c2ccccc2C1=O
107 % of control

###

Each item that follows carries a reported T/C.
system: L1210 leukemia ip in BDF1 mice, survival T/C; assay: NCI In Vivo Anticancer Drug Screen. Data for tumor model L1210 Leukemia (intraperitoneal) in B6D2F1 (BDF1) mice; settings: endpoint: mean survival time; dose: 12.5 mg/kg/injection; schedule: Q04DX003 (ip); vehicle: saline; higher = longer survival
Toxic doses and inconclusive results are not listed.

{"molecule": "Cc1cc(=O)[nH]c(NC(C)C(=O)O)n1 (stereo not drawn)", "T/C": "101 % of control"}

Returns the measured T/C for the input molecule. Input: COc1ccccc1OCC(O)COc1ccccc1OC
106 % of control

Same again, this time with OCCN1CCN(CCCN2c3ccccc3CCc3ccccc32)CC1
98 % of control

###

System: L1210 leukemia ip in BDF1 mice, survival T/C
Assay: NCI In Vivo Anticancer Drug Screen. Data for tumor model L1210 Leukemia (intraperitoneal) in B6D2F1 (BDF1) mice
Conditions: endpoint: mean survival time; dose: 200.0 mg/kg/injection; schedule: Q04DX003 (ip); vehicle: saline with Tween-80; higher = longer survival
Procedure: The antitumor activity of compounds was measured in mice bearing transplantable tumors. Survival or tumor size were measured and the results are expressed as the measurement made in the treated group (T) divided by the measurement made in the vehicle treated control group (C). The tumor model used in this assay is L1210 Leukemia (intraperitoneal) in B6D2F1 (BDF1) mice
Toxic doses and inconclusive results are not listed.
property measured: T/C

Here is how some molecules turned out for T/C.
{"molecule": "Cc1ccc(Nc2cc(Br)c(N)c3c2C(=O)c2ccccc2C3=O)cc1", "study system": "L1210 leukemia ip in BDF1 mice, survival T/C", "T/C": "95 % of control"}
{"molecule": "Nc1cccc(OCCCCc2ccccc2)c1", "study system": "L1210 leukemia ip in BDF1 mice, survival T/C", "T/C": "95 % of control"}
{"molecule": "CC(=O)C1CCCCC1", "study system": "L1210 leukemia ip in BDF1 mice, survival T/C", "T/C": "109 % of control"}

Returns the measured T/C for the input molecule. Input: N\C([S-])=N/N=C\C(=N/N=C(\N)[S-])C(O)C(O)C(O)CO.[Ni+2] (stereo unspecified)
94 % of control

Same again, this time with O=c1cc(COc2ccccc2Cl)[nH]c(=O)[nH]1
95 % of control

Same again, this time with CC(=O)CC(C)(C)N
86 % of control

###

Each item that follows carries a reported T/C.
tested on: L1210 leukemia ip in BDF1 mice, survival T/C; assay: NCI In Vivo Anticancer Drug Screen. Data for tumor model L1210 Leukemia (intraperitoneal) in B6D2F1 (BDF1) mice; details: endpoint: mean survival time; dose: 200.0 mg/kg/injection; schedule: Q01DX001 (ip); vehicle: carboxymethylcellulose (CMC); higher = longer survival
Inconclusive results and toxic doses are left out.

Here is how some compounds turned out for T/C.
{"compound": "Cc1cccc(C(=O)N(C)C(c2ccco2)P(=O)(c2ccccc2)c2ccccc2)c1 (stereo not given)", "T/C": "95 % of control"}
{"compound": "O=C(N/N=C/c1ccc2c(c1)OCO2)C(O)(c1ccccc1)c1ccccc1", "T/C": "95 % of control"}
{"compound": "Nc1nc(Cl)nc2c1ncn2C1OC(CO)C(O)C1O (stereo not given)", "T/C": "98 % of control"}
{"compound": "Cc1ccc(NC(=O)NCCCO)cc1", "T/C": "106 % of control"}

// switching to the query compound
Returns the measured T/C for the input compound. Input: CCN(CC)Cc1c(C)cc2oc(=O)c3c(c2c1O)CCCC3
93 % of control

###

Each item that follows carries a reported T/C.
test system: L1210 leukemia ip in BDF1 mice, survival T/C; assay: NCI In Vivo Anticancer Drug Screen. Data for tumor model L1210 Leukemia (intraperitoneal) in B6D2F1 (BDF1) mice; conditions: endpoint: mean survival time; dose: 400.0 mg/kg/injection; schedule: Q01DX009 (ip); vehicle: Klucel (hydroxypropylcellulose) (HPC); higher = longer survival
Inconclusive results and toxic doses are left out.

Here is how some molecules turned out for T/C.
{"molecule": "C=CCC(C(C)=O)C(=O)OCC (configuration not stated)", "T/C": "96 % of control"}
{"molecule": "Cn1c2c(c(=O)n(C)c1=O)C(C(=O)O)CC(=O)N2 (configuration not stated)", "T/C": "100 % of control"}
{"molecule": "O=C(c1ccccc1)c1c2ccccc2c(-c2ccccc2)c2ccccc12", "T/C": "92 % of control"}
{"molecule": "CC(C)(C)NC(C1=CC(C)(C)c2ccccc2C1=O)c1ccccc1 (configuration not stated)", "T/C": "101 % of control"}
{"molecule": "NS(=O)(=O)c1ccc(NC(=O)Nc2ccc(Cl)cc2[N+](=O)[O-])cc1", "T/C": "86 % of control"}
{"molecule": "Fc1cccc(/C=C2/c3cc(Cl)ccc3-c3c(Cl)cc(Cl)cc32)c1", "T/C": "96 % of control"}
{"molecule": "CCCCNC(=O)Nc1ccc(OC)cc1OC", "T/C": "118 % of control"}
{"molecule": "C/C(=N/Nc1ccc([N+](=O)[O-])cc1)c1ccncc1", "T/C": "105 % of control"}

Returns the measured T/C for the input molecule. Input: COc1ccc(OC)c(NC(=O)Nc2ccc(C(=O)O)cc2)c1
96 % of control

Same again, this time with CCOC(=O)C(c1cccc(OC)c1)C1(C(=O)OCC)CC2(CCC1=O)OCCO2 (configuration not stated)
88 % of control

###

tested on: L1210 leukemia ip in BDF1 mice, survival T/C; assay: NCI In Vivo Anticancer Drug Screen. Data for tumor model L1210 Leukemia (intraperitoneal) in B6D2F1 (BDF1) mice; conditions: endpoint: mean survival time; dose: 25.0 mg/kg/injection; schedule: Q01DX009 (ip); vehicle: Klucel (hydroxypropylcellulose) (HPC); higher = longer survival
Inconclusive results and toxic doses are left out.
property measured: T/C

Here is how some compounds turned out for T/C.
{"compound": "COc1cc2c(cc1OC)C(C#N)C2 (configuration not stated)", "T/C": "100 % of control"}
{"compound": "COc1ccc2c3c1OC1C4(CCC5C(C2)N(CC2CC2)CCC351)OCCO4 (configuration not stated)", "T/C": "95 % of control"}
{"compound": "COc1cccc(/C=C/[N+](=O)[O-])c1", "T/C": "98 % of control"}
{"compound": "CNc1cc(C(C)C)ccc1C", "T/C": "96 % of control"}
{"compound": "C=C1C(=O)OC2/C=C(\\C)CC/C=C(/C=O)C(OC)C(OC(=O)C(C)C)C12 (configuration not stated)", "T/C": "101 % of control"}

Returns the measured T/C for the input compound. Input: N#CSc1ccc(S(N)(=O)=O)cc1
106 % of control

Same again, this time with O=S(=O)(C(Cl)(Cl)Cl)C(Cl)(Cl)Cl
95 % of control

###

test system: L1210 leukemia ip in BDF1 mice, survival T/C; test: NCI In Vivo Anticancer Drug Screen. Data for tumor model L1210 Leukemia (intraperitoneal) in B6D2F1 (BDF1) mice; conditions: endpoint: mean survival time; dose: 400.0 mg/kg/injection; schedule: Q01DX001 (ip); vehicle: saline; higher = longer survival
Toxic doses and inconclusive results are not listed.
Each item that follows carries a reported T/C.

{"compound": "Clc1ccccc1-c1ccc2c(Cl)ccnc2c1", "T/C": "91 % of control"}
{"compound": "Clc1ccc(/C=N/Nc2nnc(N/N=C/c3ccc(Cl)cc3)c3ccccc23)cc1", "T/C": "95 % of control"}
{"compound": "N#CC1(N(O)C(=O)Nc2ccccc2)CCCCC1", "T/C": "91 % of control"}
{"compound": "CCCCC(CC)C(=O)CC(C)=O (stereo not given)", "T/C": "97 % of control"}

Value wanted: T/C (L1210 leukemia ip in BDF1 mice, survival T/C) of entry CCCCCCCCCCC1Cc2ccccc2C1
93 % of control
